Measured S/N, listed per entry for reference.
Target: T1, hVEGF-A (8-109) (human, UniProt P15692 214-315)
T1 construct: residue numbers count on mature VEGF-A; dimer
T1 sequence (looked up): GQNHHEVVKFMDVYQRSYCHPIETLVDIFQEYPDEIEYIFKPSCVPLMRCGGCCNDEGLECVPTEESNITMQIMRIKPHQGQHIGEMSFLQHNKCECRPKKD
Assay: spot phage ELISA

[
  {
    "BINDER": "GCPRILMRCKQDSDCLAGCVCGPNGFCG [EETI-II]",
    "S/N": 1.11
  },
  {
    "BINDER": "GCPAIQNWKEHPCKQDSDCLAGCVCSWWPSLCG (designed binder) [VEGF_CKP5]",
    "S/N": 28.4
  },
  {
    "BINDER": "GCNIMLPFWGCNRDFLCLAGCVCQYYQSCG (designed binder) [VEGF_CKP9.54.48]",
    "S/N": 34.9
  },
  {
    "BINDER": "GCHLLLPLWGCKQDSDCLAGCVCRWYHSCG (designed binder) [VEGF_CKP9.76]",
    "S/N": 15.5
  }
]
